# Experimental Target: T1, CLL-1 on U937 cells (human, UniProt Q5QGZ9 1-265)
# T1 construct: whole, on cells; also called CLEC12A; Clec12A
# T1 sequence: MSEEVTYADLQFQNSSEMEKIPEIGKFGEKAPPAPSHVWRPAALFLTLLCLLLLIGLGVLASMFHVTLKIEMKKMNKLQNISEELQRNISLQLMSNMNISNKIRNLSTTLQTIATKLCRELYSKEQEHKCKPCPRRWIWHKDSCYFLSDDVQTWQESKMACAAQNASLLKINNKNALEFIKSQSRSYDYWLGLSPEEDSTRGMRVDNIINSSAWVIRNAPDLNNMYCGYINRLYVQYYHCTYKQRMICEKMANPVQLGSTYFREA
# Method Description: flow cytometry on U937 cells, clone lysate, anti-cMyc-PE (Table 3 summary)
Readout Kind: % FACS positive (%)

For orientation, consider the following solved cases.
• VHH clone 2C2 (VHH, Includes myc and His tags) VHH: QVQLQQSGGGLVQAGGSLTLSCAATGRTIDNGAMAWFRQAPGKQRELVAAINWSGGATFYTDSVKYRFTISRDNVRHTLDLQMTSLKPEDTTIYFCASRRGVDLRRNSYEYDYWGRGTLVTVSS = 77.2
• VHH clone 2A8 (VHH, Includes myc and His tags) VHH: QVQLQAFGGGMVQAGESLRLSCVASGNDISGSAMAWYRAHLGAERELVAVDAPRERPFYIDPVIGRFTISRDDRNKMLYLQMNDLRPDDTATYWCGPSLRTFHGREWYRPPWFTSWGQGTQVTVSS = 40.1
• VHH clone 1B11 (VHH, Includes myc and His tags) VHH: AVQLQESGGGLVQAGGSLRLSCAASGSDRSINVMNWYRQAPGKQRELVAAITSGGTTNYAQSVKGRVTISRDSAKNTVYLQMNSLKPEDTAVYFCKADTRWGGMYWGPGTQVTVSS = 77.8

[A] VHH clone 1H1 (VHH, includes myc and His tags; also called 2F4) VHH: QVQLQESGGGLVQPGGSLRLSCAASGFTFNSYAMTWVRQAPGKGLEWVSDINSGGGSTNYADSVKGRFTISRDNAKNTLYLQMNSLKPEDTAVYYCATELRGSDYYRGPIREYAYWGQGTLVTVSS
[B] VHH clone 2A11 (VHH, Includes myc and His tags) VHH: QVQLQESGGGLVQPGGSLRLSCAASGSIFAINEINLMGWYRQAPGKQRELVAACASDGNTYYADSVKGRFTISRDNAEKTVYLQMNNLKPDDTAVYYCDANSRGNYYSGQGTLVTVSS
Hi team, can someone confirm which has the larger % FACS positive: A or B ? Thanks. Field: selected label. Fill in the label of the entry you choose. B

[P] VHH clone 2G10 (VHH, Includes myc and His tags) VHH: QVQLQQSGGGLVQAGGSLRLSCAASGSIFSINAMGWYRQAPGKRREMVAVVSRFGETTYTGSVKGRFTISRINRNNTVFLQMNRLKPEDTAVYYCNARIRGNYGSRIDYWGQGTQVTVSS
[Q] VHH clone 1D2 (VHH, Includes myc and His tags) VHH: QVQLQQSGGGLVQPGGSLRLSCAASGFAFDDYAMIWVRQGPGKGLEWVSSISWNGGGTYYAESIVGRFTVSRDNAKKMVYLQMNGLKSEDTAMYYCVKLVDSGWYSAYDYWGQGTQVTVSS
Hi team, can someone confirm which has the larger % FACS positive: P or Q ? Thanks. Field: selected label. Fill in the label of the entry you choose. P
